Provide the recorded T/C for the entries that follow.
# Tested on: BDF1 mice, L1210 6-MP/6-TG resistant leukemia ip, survival T/C
# assay protocol: NCI In Vivo Anticancer Drug Screen. Data for tumor model L1210 Leukemia resistant to 6-MP and 6-Thioguanine; NSC 755, NSC 752 (intraperitoneal) in B6D2F1 (BDF1) mice
# run conditions: endpoint: mean survival time; dose: 15.0 mg/kg/injection; schedule: Q01DX Z (ip); vehicle: saline; higher = longer survival
Inconclusive results and toxic doses are left out.

Q: Supply reported T/C belonging to this molecule: C=CC(CN1CC1)OC(C)=O (centres undefined)
Result: 91 % of control

Q: Supply reported T/C belonging to this molecule: `CN(C)c1ccc(/C=C/c2ccnc3ccccc23)cc1`
Result: 110 % of control

Q: Supply reported T/C belonging to this molecule: `CC(=O)N(C)C`
Result: 110 % of control

Q: Supply reported T/C belonging to this molecule: `C[C@@H]1C[C@@H]([C@H](O)CC2CC(=O)NC(=O)C2)C(=O)[C@@H](C)C1`
Result: 114 % of control

----------
# System: BDF1 mice, L1210 6-MP/6-TG resistant leukemia ip, survival T/C
# assay protocol: NCI In Vivo Anticancer Drug Screen. Data for tumor model L1210 Leukemia resistant to 6-MP and 6-Thioguanine; NSC 755, NSC 752 (intraperitoneal) in B6D2F1 (BDF1) mice
# run conditions: endpoint: mean survival time; dose: 150.0 mg/kg/injection; schedule: Q01DX Z (ip); vehicle: carboxymethylcellulose (CMC); higher = longer survival
Toxic doses and inconclusive results are not listed.
Provide the recorded T/C for the entries that follow.

Q: Supply reported T/C belonging to this molecule: `CCn1cnc2c(=S)nc[nH]c21`
Result: 87 % of control

Q: Supply reported T/C belonging to this molecule: OCC1OC(n2cnc3c(=S)nc[nH]c32)C(O)C1O (stereo not given)
Result: 97 % of control

Q: Supply reported T/C belonging to this molecule: `C[C@H]1C(=O)O[C@@H]2CCN3CC=C(COC(=O)[C@](C)(O)[C@@]1(C)O)[C@H]23`
Result: 107 % of control

Q: Supply reported T/C belonging to this molecule: `CCCSc1nc(N)nc2nc[nH]c12`
Result: 91 % of control

Q: Supply reported T/C belonging to this molecule: `O=C(Nc1ccc(C2=NCCN2)cc1)c1ccc(C(=O)Nc2ccc(C3=NCCN3)cc2)cc1`
Result: 300 % of control

----------
# Tested on: BDF1 mice, L1210 6-MP/6-TG resistant leukemia ip, survival T/C
# assay protocol: NCI In Vivo Anticancer Drug Screen. Data for tumor model L1210 Leukemia resistant to 6-MP and 6-Thioguanine; NSC 755, NSC 752 (intraperitoneal) in B6D2F1 (BDF1) mice
# run conditions: endpoint: mean survival time; dose: 12.0 mg/kg/injection; schedule: Q01DX Z (ip); vehicle: saline
Inconclusive results and toxic doses are left out. How the source made its calls: active means survival T/C of 150% or more; inactive means T/C below 125% in these data.
Just give me one of these, please: active, inactive

Q: For C=CC(CN1CC1)OC(C)=O (centres undefined) , what call appears in the results of this test?
Result: active

Q: For `CCCSc1nc(N)nc2nc[nH]c12` , what call appears in the results of this test?
Result: inactive

Q: For Nc1ncnc2c1ncn2C(C=O)OC(C=O)CO (centres undefined) , what call appears in the results of this test?
Result: inactive

Q: For CSc1ncnc2c1ncn2C1OC(CO)C(O)C1O (centres undefined) , what call appears in the results of this test?
Result: active
